# Tested on: S. aureus ATCC 43300
Threshold 1 µg/mL: MIC strictly smaller gives Y, otherwise N.

Worked set:
* CC(=O)NC[C@H]1CN(c2ccc(N3CCN(CC(=O)Nc4ccc5nc(N)[nH]c5c4)CC3)c(F)c2)C(=O)O1 [Compound 68] | N
* CC1Sc2c(C(=O)O)c(=O)c3cc(F)c(N4CCN(Cc5nc6ccc(N)cc6[nH]5)CC4)cc3n21 (centres unmarked) [Compound 20] | Y
* CC(=O)NC[C@H]1CN(c2ccc(N3CCN(C(=O)c4csc(N)n4)CC3)c(F)c2)C(=O)O1 [Compound 57] | N
* CC1Sc2c(C(=O)O)c(=O)c3cc(F)c(N4CCN(CC(=O)NC(=O)Nc5ccccc5)CC4)cc3n21 (centres unmarked) [Compound 112] | Y
* CC(=O)NC[C@H]1CN(c2ccc(N3CCN(C(=O)c4coc(N)n4)CC3)c(F)c2)C(=O)O1 [Compound 110] | N
* Cc1ncc([N+](=O)[O-])n1CCN1CCN(c2cc3c(cc2F)c(=O)c(C(=O)O)c2n3C(C)S2)CC1 (centres unmarked) [Compound 2] | Y

Query block: Dear reviewer, please state whether CC(=O)NC[C@H]1CN(c2ccc(N3CCN(Cc4nc5ccc([N+](=O)[O-])cc5[nH]4)CC3)c(F)c2)C(=O)O1 [Compound 65] has MIC strictly beneath 1 µg/mL.
Result block: N

Query block: Does CC(=O)NC[C@H]1CN(c2ccc(N3CCN(C(=O)c4c[nH]c5ccc([N+](=O)[O-])cc45)CC3)c(F)c2)C(=O)O1 [Compound 75] have MIC strictly under 1 µg/mL?
Result block: N

Query block: A record lists CC1SC2C(C(=O)O)C(=O)c3cc(F)c(N4CCN(CC(=O)c5ccccn5)CC4)cc3N12 (centres unmarked) [Compound 33] . Is its MIC below 1 µg/mL?
Result block: Y

Query block: Could you please tell me whether MIC recorded for CC1Sc2c(C(=O)O)c(=O)c3cc(F)c(N4CCN(C(=O)c5cccc[n+]5[O-])CC4)cc3n21 (centres unmarked) [Compound 34] is less than 1 µg/mL?
Result block: Y

Query block: In the record for CC1Sc2c(C(=O)O)c(=O)c3cc(F)c(N4CCN(Cc5nc6cc(Cl)c(Cl)cc6[nH]5)CC4)cc3n21 (centres unmarked) [Compound 21] , is MIC less than 1 µg/mL?
Result block: Y

Query block: Find out if reported MIC for CC(=O)NC[C@H]1CN(c2ccc(N3CCN(C(=O)c4cccc(Br)n4)CC3)c(F)c2)C(=O)O1 [Compound 76] is less than 1 µg/mL
Result block: N
